Recorded values, source patent US9604989B2.

# Tested System: His-tagged human recombinant kinase full-length Akt2 (Homo sapiens (Human))
# Assay Info: Akt2 kinase assay (Akt2 TR-FRET assay)
# Conditions: 10 μM ATP, 60 min at 22° C., read-out: Akt2 median IC50
pIC50: −log10 of the molar value.
Decide using pIC50: a value greater than or equal to 7 is true, a smaller one is false.

{"Smiles Notation": "CCOc1cc(C(=O)OC)nn2c(-c3ccccc3)c(-c3ccc(C4(N)CCC4)cc3)nc12", "Class Assignment": "true"}
{"Smiles Notation": "COC(=O)c1cc(-c2cc[nH]n2)c2nc(-c3ccc(C4(N)CCC4)cc3)c(-c3ccccc3)n2n1", "Class Assignment": "true"}
{"Smiles Notation": "NC1(c2ccc(-c3nc4ccc(O)nn4c3-c3ccccc3)cc2)CCC1", "Class Assignment": "false"}
{"Smiles Notation": "COc1cc(C(N)=O)nn2c(-c3ccccc3)c(-c3ccc(C4(N)CCC4)cc3)nc12", "Class Assignment": "true"}

###

Each item that follows carries a reported log10 of IC50.
# System: KPL-4 breast cancer cell line
# Assay Info: Tumor cell proliferation assay (CellTiter-Glo), KPL-4
# Type: cell-based
# Conditions: Homo sapiens, KPL4, 72 h drug exposure, read-out: KLP-4 median IC50
Recorded Metric: log10 of IC50 (log10 of the value in µM)

{"Molecule": "COc1cc(-c2ccncc2)c2nc(-c3ccc(C4(N)CCC4)cc3)c(-c3ccccc3)n2n1 [Example 75]", "log10 of IC50": 0.26}
{"Molecule": "Cc1ccc2nc(-c3ccc(C4(N)CCC4)cc3)c(-c3ccccc3)n2n1 [Example 1]", "log10 of IC50": 0.26}
{"Molecule": "COc1ccnn2c(-c3ccccc3)c(-c3ccc(C4(N)CCC4)cc3)nc12 [Example 11]", "log10 of IC50": -0.20}
{"Molecule": "COC(=O)c1cc(-c2cc[nH]n2)c2nc(-c3ccc(C4(N)CCC4)cc3)c(-c3ccccc3)n2n1 [Example 56]", "log10 of IC50": 0.91}
{"Molecule": "CNC(=O)c1cc(-c2cc[nH]n2)c2nc(-c3ccc(C4(N)CCC4)cc3)c(-c3ccccc3)n2n1 [Example 65]", "log10 of IC50": -0.33}
{"Molecule": "NC1(c2ccc(-c3nc4cccnn4c3-c3ccccc3)cc2)CCC1 [Example 25]", "log10 of IC50": 0.30}
{"Molecule": "CNC(=O)c1ccc2nc(-c3ccc(C4(N)CCC4)cc3)c(-c3ccccc3)n2n1 [Example 68]", "log10 of IC50": 0.18}
{"Molecule": "NC1(c2ccc(-c3nc4c(-c5cc[nH]n5)cc(Cl)nn4c3-c3ccccc3)cc2)CCC1 [Example 19]", "log10 of IC50": 0.30}
{"Molecule": "COc1cc(-c2ccnn2C)c2nc(-c3ccc(C4(N)CCC4)cc3)c(-c3ccccc3)n2n1 [Example 74]", "log10 of IC50": 0.32}
{"Molecule": "CCc1cc(OC)c2nc(-c3ccc(C4(N)CCC4)cc3)c(-c3ccccc3)n2n1 [Example 13]", "log10 of IC50": 0.18}
{"Molecule": "COC(=O)COc1ccc2nc(-c3ccc(C4(N)CCC4)cc3)c(-c3ccccc3)n2n1 [Example 80]", "log10 of IC50": 1.00}
{"Molecule": "CC(=O)Nc1ccc2nc(-c3ccc(C4(N)CCC4)cc3)c(-c3ccccc3)n2n1 [Example 37]", "log10 of IC50": 0.51}
{"Molecule": "C=Cc1cc(OC)c2nc(-c3ccc(C4(N)CCC4)cc3)c(-c3ccccc3)n2n1 [Example 18]", "log10 of IC50": 0.20}
{"Molecule": "CN(C)C(=O)c1ccc2nc(-c3ccc(C4(N)CCC4)cc3)c(-c3ccccc3)n2n1 [Example 69]", "log10 of IC50": 1.00}
{"Molecule": "CCOc1cc(C(=O)OC)nn2c(-c3ccccc3)c(-c3ccc(C4(N)CCC4)cc3)nc12 [Example 57]", "log10 of IC50": 0.97}
{"Molecule": "NC1(c2ccc(-c3nc4ccc(C(=O)NCCO)nn4c3-c3ccccc3)cc2)CCC1 [Example 70]", "log10 of IC50": 0.41}
{"Molecule": "CCOc1cc(C(N)=O)nn2c(-c3ccccc3)c(-c3ccc(C4(N)CCC4)cc3)nc12 [Example 61]", "log10 of IC50": -1.48}
{"Molecule": "CNC(=O)c1cc(OC)c2nc(-c3ccc(C4(N)CCC4)cc3)c(-c3ccccc3)n2n1 [Example 26]", "log10 of IC50": 0.26}
{"Molecule": "NC1(c2ccc(-c3nc4ccc(O)nn4c3-c3ccccc3)cc2)CCC1 [Example 79]", "log10 of IC50": 1.00}
{"Molecule": "COCCOc1cc(C(N)=O)nn2c(-c3ccccc3)c(-c3ccc(C4(N)CCC4)cc3)nc12 [Example 28]", "log10 of IC50": 0.28}
{"Molecule": "CCc1ccc2nc(-c3ccc(C4(N)CCC4)cc3)c(-c3ccccc3)n2n1 [Example 2]", "log10 of IC50": 0.23}
{"Molecule": "NC1(c2ccc(-c3nc4c(-c5ccc(F)cc5)ccnn4c3-c3ccccc3)cc2)CCC1 [Example 44]", "log10 of IC50": 0.30}
{"Molecule": "Cc1c(C(N)=O)nn2c(-c3ccccc3)c(-c3ccc(C4(N)CCC4)cc3)nc2c1C [Example 52]", "log10 of IC50": -0.85}
{"Molecule": "COC(=O)c1nn2c(-c3ccccc3)c(-c3ccc(C4(N)CCC4)cc3)nc2c(C)c1C [Example 51]", "log10 of IC50": 0.85}

###

# Test system: MCF-7 breast tumour cell line
# Assay Info: Tumor cell proliferation assay (CellTiter-Glo), MCF-7
# Type: cell-based
# Conditions: Homo sapiens, MCF7, 72 h drug exposure, read-out: MCF-7 median IC50

{"Compound": "COC(=O)c1cc(-c2ncc[nH]2)c2nc(-c3ccc(C4(N)CCC4)cc3)c(-c3ccccc3)n2n1 [Example 58]", "Modifier Sign": ">", "IC50 [nM]": 10000}
{"Compound": "NC1(c2ccc(-c3nc4ccc(Br)nn4c3-c3ccccc3)cc2)CCC1 [Example 41]", "Modifier Sign": ">", "IC50 [nM]": 10000}
{"Compound": "CS(=O)(=O)Nc1ccc2nc(-c3ccc(C4(N)CCC4)cc3)c(-c3ccccc3)n2n1 [Example 45]", "Modifier Sign": ">", "IC50 [nM]": 10000}
{"Compound": "COc1cc(Br)nn2c(-c3ccccc3)c(-c3ccc(C4(N)CCC4)cc3)nc12 [Example 7]", "Modifier Sign": "=", "IC50 [nM]": 410}
{"Compound": "COC(=O)COc1ccc2nc(-c3ccc(C4(N)CCC4)cc3)c(-c3ccccc3)n2n1 [Example 80]", "Modifier Sign": "=", "IC50 [nM]": 10000}
{"Compound": "Cc1c(Cl)nn2c(-c3ccccc3)c(-c3ccc(C4(N)CCC4)cc3)nc2c1C [Example 50]", "Modifier Sign": "=", "IC50 [nM]": 1800}
{"Compound": "CCOc1cc(Cl)nn2c(-c3ccccc3)c(-c3ccc(C4(N)CCC4)cc3)nc12 [Example 30]", "Modifier Sign": "=", "IC50 [nM]": 2600}
{"Compound": "CC(=O)Nc1ccnn2c(-c3ccccc3)c(-c3ccc(C4(N)CCC4)cc3)nc12 [Example 49]", "Modifier Sign": "=", "IC50 [nM]": 610}

###

# Tested System: His-tagged human recombinant kinase full-length Akt2 (Homo sapiens (Human), UniProt P31751)
# Sequence (P31751 whole entry): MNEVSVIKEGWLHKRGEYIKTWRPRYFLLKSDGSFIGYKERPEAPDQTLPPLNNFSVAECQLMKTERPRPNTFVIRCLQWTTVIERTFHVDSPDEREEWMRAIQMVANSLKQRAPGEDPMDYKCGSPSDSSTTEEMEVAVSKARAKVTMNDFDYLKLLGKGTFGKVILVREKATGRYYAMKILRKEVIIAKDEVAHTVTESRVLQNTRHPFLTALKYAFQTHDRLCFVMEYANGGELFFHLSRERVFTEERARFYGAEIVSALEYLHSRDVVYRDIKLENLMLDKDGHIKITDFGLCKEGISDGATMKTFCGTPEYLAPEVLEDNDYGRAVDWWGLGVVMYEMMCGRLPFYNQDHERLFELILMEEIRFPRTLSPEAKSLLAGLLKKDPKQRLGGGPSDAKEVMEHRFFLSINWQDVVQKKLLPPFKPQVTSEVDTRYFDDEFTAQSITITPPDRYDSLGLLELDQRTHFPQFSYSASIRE
# Assay Info: Akt2 kinase assay (Akt2 TR-FRET assay)
# Conditions: 10 μM ATP, 60 min at 22° C., read-out: Akt2 median IC50
Recorded Metric: IC50 (nM)

{"Compound": "NC1(c2ccc(-c3nc4c(-c5ccc(F)cc5)ccnn4c3-c3ccccc3)cc2)CCC1 [Example 44]", "Recorded Metric": "IC50", "Numeric Result": 310}
{"Compound": "CS(=O)(=O)Nc1ccc2nc(-c3ccc(C4(N)CCC4)cc3)c(-c3ccccc3)n2n1 [Example 45]", "Recorded Metric": "IC50", "Numeric Result": 6600}
{"Compound": "NC(=O)c1cc(C(N)=O)c2nc(-c3ccc(C4(N)CCC4)cc3)c(-c3ccccc3)n2n1 [Example 34]", "Recorded Metric": "IC50", "Numeric Result": 14}
{"Compound": "CCCCOc1cc(OCC)nn2c(-c3ccccc3)c(-c3ccc(C4(N)CCC4)cc3)nc12 [Example 77]", "Recorded Metric": "IC50", "Numeric Result": 61}
{"Compound": "COC(=O)CCc1ccnn2c(-c3ccccc3)c(-c3ccc(C4(N)CCC4)cc3)nc12 [Example 72]", "Recorded Metric": "IC50", "Numeric Result": 580}
{"Compound": "NC1(c2ccc(-c3nc4c(-c5cc[nH]n5)cc(C(=O)O)nn4c3-c3ccccc3)cc2)CCC1 [Example 67]", "Recorded Metric": "IC50", "Numeric Result": 96}
